experimentSummary: Plasma dosimetry of PFHxSA and PFHxS by targeted LC/MS/MS
Assay type: in vivo, rat
assayContext: female, Sprague Dawley (Crl:CD(SD)), rat, plasma, oral, 0.1 mg/kg/day, PFHxSA 0.1 mg/kg/day oral 5 days; female rats; mean ± SD; read-out: PFHxSA Female Plasma Conc.
attributeMeasured: concentration at 24 h (nM)
The figure you give is taken to be in nM; do not add the unit.

What value of measured concentration at 24 h is listed for NS(=O)(=O)C(F)(F)C(F)(F)C(F)(F)C(F)(F)C(F)(F)C(F)(F)F [PFHxSA, Perfluorohexanesulfonamide] ?
1100

----------
experimentSummary: Liver-to-plasma partitioning (Kp)
Format: in vivo, rat
assayContext: both sexes, Sprague Dawley (Crl:CD(SD)), rat, liver and plasma, oral, both sexes across all tested doses
attributeMeasured: Kp at 24 h

What value of measured Kp at 24 h is listed for NS(=O)(=O)C(F)(F)C(F)(F)C(F)(F)C(F)(F)C(F)(F)C(F)(F)F [PFHxSA, Perfluorohexanesulfonamide] ?
0.13 to 0.6
